# Tested on: SF-539 CNS
# method.summary: NCI tumour cell line growth inhibition, 48 h
metric: TGI

Some entries whose results are on file:
# compound, TGI
rows = [
    ("C=CCNC(=S)N1c2ccccc2NC(=O)CC1C (stereo not given)", "> 100 µM"),
    ("CCOC(=O)c1ccc(N(CCOS(C)(=O)=O)CCOS(C)(=O)=O)cc1C", "> 100 µM"),
    ("Nc1nc(Nc2ccccc2)sc1C(=O)c1ccc(Cl)cc1", "> 100 µM"),
    ("O=c1c2ccccc2nc(-c2ccc(Br)cc2)n1NC1OC(CO)C(O)C(O)C1O (stereo not given)", "> 100 µM"),
]

Now consider the entry below.
Which TGI value belongs to `C[C@]12CCC(=O)C=C1CC[C@@H]1[C@@H]2CC[C@]2(C)C(=O)[C@H](n3ccnc3)C[C@@H]12` ?
> 100 µM
